Entry source: ChEMBL document CHEMBL3792332

test: Antioxidant activity assessed as inhibition of peroxynitrite induced oxidation of the non-fluorescent dihydrorhodamine 123 to the fluorescent rhodamine-123 in presence of NaHCO3 after 2 mins by fluorimetric method; assay type: physicochemical
metricName: pIC50
Keep in mind that pIC50 stands for -log10 of concentration in molar terms.

For orientation, consider the following solved cases.
O=c1c(O)c(-c2ccc(O)c(O)c2)oc2cc(O)cc(O)c12 | 6.17
O=c1cc(/C=C/C=C/c2ccc(O)c(O)c2)oc2cccc(O)c12 | 6.40

Kindly consider the entry below.
Query string: Item under review: O=c1c2ccccc2oc2cccc(-c3ccc(O)c(O)c3)c12 . Reported pIC50?
Result string: 6.46
